# Tested on: U2OS
# Assay procedure: Multiplex assay against U2OS
# Type: toxicity, cell-based
# Measurement conditions: human, 12 h, 10 µM, compound concentration 10 uM, replicate 2
Kindly supply the reported Population Fragmented Nuclei (%) values for the records listed here.
Answers are plain numbers, in %.

The examples below pair each entry with its known result.
CN(C)C/C=C/C(=O)Nc1ccc(C(=O)N2CCCC(Nc3ncc(Cl)c(-c4c[nH]c5ccccc45)n3)C2)cc1 (stereo not drawn)    25
COc1cc(Nc2ncc3c(n2)-c2ccc(Cl)cc2C(c2c(F)cccc2OC)=NC3)ccc1C(=O)O    12
O=C(Nc1cc(-c2ccccc2)nn1-c1ccccc1F)c1ccc([N+](=O)[O-])cc1    12
CN1CCC(C(=O)c2cccc(NC(=O)c3c(F)cc(F)cc3F)n2)CC1    14
O=C(O)CCC/C=C\CC1C(O)CC(O)C1/C=C/C(O)COc1cccc(Cl)c1 (stereo not drawn)    9

Each molecule below has a recorded value; state its Population Fragmented Nuclei (%).
1. N[C@](CC1c2ccccc2Oc2ccccc21)(C(=O)O)[C@H]1C[C@@H]1C(=O)O
2. Cc1nn(C)c2nc(NNC(=O)Nc3cc(Cl)nc(Cl)c3)cc(C(C)C)c12
3. COC(c1ccccc1)(c1ccccc1)[C@H](Oc1nc(C)cc(C)n1)C(=O)O

Result:
[19, 15, 19]
